For each of the molecules below, state its pIC50.
Test system: phosphorylation of ERK, KRAS G12D in AGS cells
Experiment: pERK inhibition assay, KRAS G12D in AGS cells
Type: cell-based, human
Details: Homo sapiens, 4 hours
Answers are plain numbers, as −log10 of the molar value.

Example entries begin here.
molecule	study-system	test-readout	meas-value
CCn1c(-c2cc(N3CCN(CC(F)(F)F)CC3)cnc2[C@H](C)OC)c2c3cc(c(F)cc31)-c1csc(n1)C[C@H](NC(=O)[C@H](C(C)C)N(C)C(=O)N1CCOCC1)C(=O)N1CCC[C@H](N1)C(=O)OCC(C)(C)C2 (atropisomer, axis not shown; (M))	phosphorylation of ERK, KRAS G12D in AGS cells	pIC50	7.64
CCn1c(-c2cc(N3CCOCC3)cnc2[C@H](C)OC)c2c3cc(c(F)cc31)-c1csc(n1)C[C@H](NC(=O)[C@H](C(C)C)N1CCN(C)C1=O)C(=O)N1CCC[C@H](N1)C(=O)OCC(C)(C)C2 (atropisomer, axis not shown; (M))	phosphorylation of ERK, KRAS G12D in AGS cells	pIC50	7.62
CO[C@@H](C)c1ncc(N2CCN(C)CC2)cc1-c1c2c3cc(ccc3n1CC(F)(F)F)-c1csc(n1)C[C@H](NC(=O)[C@H](C(C)C)N(C)C(=O)N1CCOCC1)C(=O)N1CCC[C@H](N1)C(=O)OCC(C)(C)C2 (atropisomer, axis not shown; (M))	phosphorylation of ERK, KRAS G12D in AGS cells	pIC50	9.00
CO[C@@H](C)c1ncc(N2CCN(C)CC2)cc1-c1c2c3cc(c(F)cc3n1CC(F)(F)F)-c1csc(n1)C[C@H](NC(=O)[C@H](C(C)C)N(C)C(=O)N1CC(N(C)C)C1)C(=O)N1CCC[C@H](N1)C(=O)OCC(C)(C)C2 (atropisomer, axis not shown; (M))	phosphorylation of ERK, KRAS G12D in AGS cells	pIC50	8.70
CCn1c(-c2cc(N3CCOCC3)cnc2[C@H](C)OC)c2c3cc(c(F)cc31)-c1csc(n1)C[C@H](NC(=O)[C@H](C(C)C)N(C)C(=O)N1CC(C(F)(F)F)C1)C(=O)N1CCC[C@H](N1)C(=O)OCC(C)(C)C2 (atropisomer, axis not shown; (M))	phosphorylation of ERK, KRAS G12D in AGS cells	pIC50	7.49

// moving on: another record for pIC50
Q: Record lookup: for phosphorylation of ERK, KRAS G12D in AGS cells, what pIC50 belongs to CO[C@@H](C)c1ncc(N2CCN(C)CC2)cc1-c1c2c3c(F)c(ccc3n1CC(F)(F)F)-c1csc(n1)C[C@H](NC(=O)[C@H](C(C)C)N(C)C(=O)N1CC(N(C)C)C1)C(=O)N1CCC[C@H](N1)C(=O)OCC(C)(C)C2 (atropisomer, axis not shown; (M)) ?
Ans: 8.30

###

Assay: Single dose pharmacokinetics (PK) study in female BALB/c mice
Type: in vivo
Conditions: mouse; 30 mg/kg, po, female BALB/c mice, plasma
test-readout: Cmax (ng/mL)
Numbers only, in ng/mL.

Q: Quick one: Cmax for CO[C@@H](C)c1ncc(N2CCN(CC(F)(F)F)CC2)cc1-c1c2c3cc(ccc3n1CC(F)(F)F)-c1csc(n1)C[C@H](NC(=O)[C@H](C(C)C)N(C)C(=O)N1CCOCC1)C(=O)N1CCC[C@H](N1)C(=O)OCC(C)(C)C2 (atropisomer, axis not shown; (M)) [Example 6] ?
Ans: 4890

###

Test system: phosphorylation of ERK, KRAS G12D in AGS cells
Experiment: pERK inhibition assay, KRAS G12D in AGS cells
Assay type: cell-based, human
Details: Homo sapiens, 4 hours
test-readout: pIC50
Give bare numbers, as −log10 of the molar value.

Example entries begin here.
molecule	meas-value
CO[C@@H](C)c1ncc(N2CCN(CC(F)(F)F)CC2)cc1-c1c2c3c(F)c(ccc3n1CC(F)(F)F)-c1csc(n1)C[C@H](NC(=O)[C@H](C(C)C)N(C)C(=O)N1CCOCC1)C(=O)N1CCC[C@H](N1)C(=O)OCC(C)(C)C2 (atropisomer, axis not shown; (M)) [Example 17]	8.40
CO[C@@H](C)c1ncc(N2CCOCC2)cc1-c1c2c3cc(c(F)cc3n1CC(F)(F)F)-c1csc(n1)C[C@H](NC(=O)[C@H](C(C)C)N(C)C(=O)N1CCOCC1)C(=O)N1CCC[C@H](N1)C(=O)OCC(C)(C)C2 (atropisomer, axis not shown; (M)) [Example 11]	9.00
CO[C@@H](C)c1ncc(N2CCN(CC(F)(F)F)CC2)cc1-c1c2c3cc(c(F)cc3n1CC(F)(F)F)-c1csc(n1)C[C@H](NC(=O)[C@H](C(C)C)N(C)C(=O)N1CC(N(C)C)C1)C(=O)N1CCC[C@H](N1)C(=O)OCC(C)(C)C2 (atropisomer, axis not shown; (M)) [Example 12]	7.82
CO[C@@H](C)c1ncc(N2CCOCC2)cc1-c1c2c3cc(c(F)cc3n1CC(F)(F)F)-c1csc(n1)C[C@H](NC(=O)[C@H](C(C)C)N(C)C(=O)N1CC(N(C)C)C1)C(=O)N1CCC[C@H](N1)C(=O)OCC(C)(C)C2 (atropisomer, axis not shown; (M)) [Example 4]	8.52
CCn1c(-c2cc(N3CCOCC3)cnc2[C@H](C)OC)c2c3cc(c(F)cc31)-c1csc(n1)C[C@H](NC(=O)[C@H](C(C)C)N(C)C(=O)NCC(F)(F)F)C(=O)N1CCC[C@H](N1)C(=O)OCC(C)(C)C2 (atropisomer, axis not shown; (M)) [Example 13]	7.34

Your task in this section: give pIC50 for each listed record.
1. CCn1c(-c2cc(N3CCN(C)CC3)cnc2[C@H](C)OC)c2c3cc(c(F)cc31)-c1csc(n1)C[C@H](NC(=O)[C@H](C(C)C)N(C)C(=O)N1CCOCC1)C(=O)N1CCC[C@H](N1)C(=O)OCC(C)(C)C2 (atropisomer, axis not shown; (M)) [Example 10]
2. CO[C@@H](C)c1ncc(N2CCN(CC(F)(F)F)CC2)cc1-c1c2c3cc(ccc3n1CC(F)(F)F)-c1csc(n1)C[C@H](NC(=O)[C@H](C(C)C)N(C)C(=O)N1CCOCC1)C(=O)N1CCC[C@H](N1)C(=O)OCC(C)(C)C2 (atropisomer, axis not shown; (M)) [Example 6]

Ans:
1. 8.10
2. 8.52

###

Assay: Single dose pharmacokinetics (PK) study in female BALB/c mice
Assay type: in vivo
Conditions: mouse; 3 mg/kg, iv, female BALB/c mice, plasma
test-readout: clearance (L/h/kg)
One number for each entry, in L/h/kg.

Q: Quick one: clearance for CO[C@@H](C)c1ncc(N2CCN(CC(F)(F)F)CC2)cc1-c1c2c3cc(ccc3n1CC(F)(F)F)-c1csc(n1)C[C@H](NC(=O)[C@H](C(C)C)N(C)C(=O)N1CCOCC1)C(=O)N1CCC[C@H](N1)C(=O)OCC(C)(C)C2 (atropisomer, axis not shown; (M)) ?
Ans: 0.222

###

Target: KRAS G12V-BRAF complex (Homo sapiens (Human), UniProt P01116+P62937, G12V)
Sequence (P01116-2 other isoform, or with tags, fused parts or gaps G12V): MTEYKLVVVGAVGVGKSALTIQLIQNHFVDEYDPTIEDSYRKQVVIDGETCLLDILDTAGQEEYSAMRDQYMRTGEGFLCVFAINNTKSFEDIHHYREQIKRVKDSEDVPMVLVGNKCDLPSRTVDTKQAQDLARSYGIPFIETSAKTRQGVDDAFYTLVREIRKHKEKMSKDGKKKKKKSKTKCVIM
Sequence (P62937 whole entry): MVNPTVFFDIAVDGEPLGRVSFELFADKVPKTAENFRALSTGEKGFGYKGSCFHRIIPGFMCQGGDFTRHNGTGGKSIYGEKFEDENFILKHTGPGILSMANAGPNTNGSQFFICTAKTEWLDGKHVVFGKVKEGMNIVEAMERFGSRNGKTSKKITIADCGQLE
Experiment: KRAS-BRAF with CYPA (500 nM) interaction assay (TR-FRET), G12V
pIC50: −log10 of the molar value.
pIC50 of 7 or higher: True. Under 7: False.

A selection of reference data follows.
molecule	label-value
CCn1c(-c2cc(N3CCOCC3)cnc2[C@H](C)OC)c2c3cc(c(F)cc31)-c1csc(n1)C[C@H](NC(=O)[C@H](C(C)C)N(C)C(=O)N1CC(C(F)(F)F)C1)C(=O)N1CCC[C@H](N1)C(=O)OCC(C)(C)C2 (atropisomer, axis not shown; (M)) [Example 14]	False
CCn1c(-c2cc(N3CCOCC3)cnc2[C@H](C)OC)c2c3cc(c(F)cc31)-c1csc(n1)C[C@H](NC(=O)[C@H](C(C)C)N(C)C(=O)NCC(F)(F)F)C(=O)N1CCC[C@H](N1)C(=O)OCC(C)(C)C2 (atropisomer, axis not shown; (M)) [Example 13]	False
CCn1c(-c2cc(N3CCOCC3)cnc2[C@H](C)OC)c2c3cc(c(F)cc31)-c1csc(n1)C[C@H](NC(=O)[C@H](C(C)C)N(C)C(=O)N1CC(F)(F)C1)C(=O)N1CCC[C@H](N1)C(=O)OCC(C)(C)C2 (atropisomer, axis not shown; (M)) [Example 7]	False

Note: attention shifts to another entry.
Q: Quick check: does CO[C@@H](C)c1ncc(N2CCN(CC(F)(F)F)CC2)cc1-c1c2c3c(F)c(ccc3n1CC(F)(F)F)-c1csc(n1)C[C@H](NC(=O)[C@H](C(C)C)N(C)C(=O)N1CCOCC1)C(=O)N1CCC[C@H](N1)C(=O)OCC(C)(C)C2 (atropisomer, axis not shown; (M)) [Example 17] have pIC50 greater than or equal to 7?
Ans: True
